Test system: MCF7
method_summary: Antiproliferative activity against human MCF7 cells after 72 hrs by MTT assay
Type: functional, cell-based
condition_parameters: MCF7, 72 h
measured_metric: IC50 (nM)

query_smiles=CC(=O)Nc1ccc(-c2ccnc(Nc3cccc(OCCCCCCCC(=O)NO)c3)n2)cc1 measured_metric=IC50 reported_value=1220
query_smiles=CC(=O)Nc1ccc(-c2ccnc(Nc3ccc(OCCCCCCCC(=O)NO)cc3)n2)cc1 measured_metric=IC50 reported_value=5530
query_smiles=O=C(CCCCCCC(=O)Nc1ccc(-c2ccnc(Nc3ccc(N4CCOCC4)cc3)n2)cc1)NO measured_metric=IC50 reported_value=700
query_smiles=CN1CCN(c2ccc(Nc3nccc(-c4ccc(NC(=O)CCCCCCC(=O)NO)cc4)n3)cc2)CC1 measured_metric=IC50 reported_value=1610
query_smiles=CC(=O)Nc1ccc(-c2nc(Nc3ccc(OCCCCCC(=O)NO)cc3)ncc2C)cc1 measured_metric=IC50 reported_value=2370
query_smiles=CC(=O)Nc1ccc(-c2ccnc(Nc3ccc(OCCCCCC(=O)NO)cc3)n2)cc1 measured_metric=IC50 reported_value=2010
query_smiles=CC(=O)Nc1ccc(-c2ccnc(Nc3cccc(NC(=O)CCCCCCC(=O)NO)c3)n2)cc1 measured_metric=IC50 reported_value=320
query_smiles=CC(=O)Nc1ccc(-c2ccnc(Nc3ccc(NC(=O)CCCCC(=O)NO)cc3)n2)cc1 measured_metric=IC50 reported_value=43400
query_smiles=CC(=O)Nc1ccc(-c2nc(Nc3cccc(OCCCCCCCC(=O)NO)c3)ncc2C)cc1 measured_metric=IC50 reported_value=30800
query_smiles=O=C(CCCCCCC(=O)Nc1ccc(-c2ccnc(Nc3ccc(N4CCCCC4)cc3)n2)cc1)NO measured_metric=IC50 reported_value=1890
query_smiles=CC(=O)Nc1ccc(-c2ccnc(Nc3cccc(NC(=O)CCCCC(=O)NO)c3)n2)cc1 measured_metric=IC50 reported_value=26700
query_smiles=CC(=O)Nc1ccc(-c2ccnc(Nc3cccc(OCCCCCCC(=O)NO)c3)n2)cc1 measured_metric=IC50 reported_value=2420
query_smiles=Cc1cnc(Nc2ccc(N3CCN(C)CC3)cc2)nc1-c1ccc(NC(=O)CCCCCCC(=O)NO)cc1 measured_metric=IC50 reported_value=1300
query_smiles=CN1CCN(CC(=O)Nc2ccc(-c3ccnc(Nc4ccc(OCCCCCCC(=O)NO)cc4)n3)cc2)CC1 measured_metric=IC50 reported_value=4840
query_smiles=O=C(CCCCCCC(=O)Nc1ccc(-c2ccnc(Nc3ccccc3)n2)cc1)NO measured_metric=IC50 reported_value=330
